The entries below are paired with their reported folding stability dG unfold.
Test: folding stability dG unfold from trypsin proteolysis; higher = more stable
reportedEndpoint: folding stability dG unfold (kcal/mol)

1) SAGGRKAKVTVTLPDGTVVELELEFKTEEEFEKAVKEKLEELFGKSIEEVPFVEKKVTVYDPEKGSKSESAG [r5_482_JUSTAS]	1.13
2) SMVVVKVTASSPEEAEALAKEAEEKLKEEIEKKIKELKKKGINPKELNLNIKIEIETLSYDPANPGKNTPSA [r9_961_JUSTAS]	0.484
3) SAGGSAGGMELISEKPAKVKYGDKEAEVWVKLVKIPNTDEVLVTLYFPGSGKPRIIPAKDVEIESAGGSAGG [r6_263_TrMRF]	0.655
4) SAGGSATLTLPEDVVKEVFTAKVGDKEYRPVVFRSPDDEWVLVLVLRRDPNGNTSAVAALLPKDAVSAGGSA [r15_986_TrMRF]	1.49
5) SAGGSAGGSAGSSLPPDARYTTKVTVKTPFSKTLSLSEYQKLPPSEIKGIEIEKEVVPVESAGGSAGGSAGG [r11_899_JUSTAS]	-0.198
6) SAEKTLTIPITLENGATLTITVYEDRIEATLEVDGLTGTGYTLPDGTVVLNLRAPGNKPIASPVFTLDLSAG [r14_213_TrMRF]	1.73
7) SAPWVYHVRIEYKGPDGEPVAEHTIMVKTPEALKEQIRKHFGLSPAQIKNIEVEPVIPAEEMNEMQEKGSAG [r14_852_TrROS]	0.204
